Target: UniProt:Q9NWZ3
Sequence (Q9NWZ3 1-460): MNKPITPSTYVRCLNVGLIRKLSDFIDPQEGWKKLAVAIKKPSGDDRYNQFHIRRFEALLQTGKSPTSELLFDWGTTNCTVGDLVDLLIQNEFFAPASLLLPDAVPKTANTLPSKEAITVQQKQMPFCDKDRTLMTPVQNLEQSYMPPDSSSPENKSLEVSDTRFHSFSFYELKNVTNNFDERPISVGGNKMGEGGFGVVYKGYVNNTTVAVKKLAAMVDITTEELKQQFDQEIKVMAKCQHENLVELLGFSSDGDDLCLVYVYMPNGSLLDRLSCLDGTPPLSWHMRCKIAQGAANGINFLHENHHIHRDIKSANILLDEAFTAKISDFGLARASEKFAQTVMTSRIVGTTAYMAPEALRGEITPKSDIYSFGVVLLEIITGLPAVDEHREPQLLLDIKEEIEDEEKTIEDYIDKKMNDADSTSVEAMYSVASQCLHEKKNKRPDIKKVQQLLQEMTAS
Assay: WB detection of proteolysis (Western Blot, THP-1 cells)
Format: cell-based
Conditions: Western Blot, THP-1 cells, 24 h; read-out: DC50
quantityKind: DC50

Cn1c(=O)n(C2CCC(=O)NC2=O)c2cccc(N3CCC(CN4CCC5(CCC(n6cc(-n7cc(-c8cnn9ccc(N[C@@H]%10CCCC[C@@H]%10O)nc89)nn7)c(C(F)F)n6)CC5)CC4)CC3)c21 (some centres unmarked) [Example 171]: < 0.01 µM

Input: Look up DC50: Cn1c(=O)n(C2CCC(=O)NC2=O)c2cccc(N[C@H]3CC[C@H](N(C)C[C@H]4CC[C@H](n5cc(-n6cc(-c7cnn8ccc(N9CCC[C@H](N)C9)nc78)nn6)c(C(F)F)n5)CC4)CC3)c21 (some centres unmarked) [Example 118]
Output: 0.01 to 0.03 µM

Input: Data request, read-out DC50, for C[C@@H]1CN(C[C@H]2CC[C@H](n3cc(-n4cc(-c5cnn6ccc(N7CCC[C@H](O)C7)nc56)nn4)c(C(F)F)n3)CC2)CCN1C1CCN(c2cccc3c2n(C)c(=O)n3C2CCC(=O)NC2=O)CC1 (some centres unmarked) [Example 294]
Output: < 0.01 µM

Input: Data request, read-out DC50, for Cn1c(=O)n(C2CCC(=O)NC2=O)c2cccc(N3CCC4(CCN(C[C@H]5CC[C@H](n6cc(-n7cc(-c8cnn9ccc(NCC%10CC%10)nc89)nn7)c(C(F)F)n6)CC5)C4)CC3)c21 (some centres unmarked) [Example 113]
Output: > 0.03 µM

Input: Please give the measured DC50 for this compound: Cn1c(=O)n(C2CCC(=O)NC2=O)c2cccc(CN3CC4(CCC(CN[C@H]5CC[C@H](n6cc(-n7cc(-c8ccc9cc(C(N)=O)cnn89)nn7)c(C(F)F)n6)CC5)CC4)C3)c21 (some centres unmarked) [Example 60]
Output: 0.01 to 0.03 µM

----------
Target: IRAK4 (Homo sapiens)
Assay: Hibit fluorescence detection of proteolysis (IRAK4-HiBiT in HEK293T cells)
Assay type: cell-based
Parameters: host or cells: HEK293T (ATCC)
Conditions: HEK-293T
quantityKind: Dmax

Known Dmax results, listed for orientation:
Cn1c(=O)n(C2CCC(=O)NC2=O)c2cccc(CCCN3CCOC(CNCC4CCC(n5cc(-n6cc(-c7cnn8ccc(N9CCOCC9)nc78)nn6)c(C(F)F)n5)CC4)C3)c21 (stereo not drawn): < 60%
Cn1c(=O)n(C2CCC(=O)NC2=O)c2cccc(C3CCN(C[C@H]4CC[C@H](n5cc(-n6cc(-n7ccc8cc(C(N)=O)cnc87)nn6)c(C(F)F)n5)CC4)CC3)c21 (stereo partly drawn): 70 to 80%
Cn1c(=O)n(C2CCC(=O)NC2=O)c2cccc(CNC3CC4(CCN(C[C@H]5CC[C@H](n6cc(-n7cc(-c8cnn9ccc(N%10CCOCC%10)nc89)nn7)c(C(F)F)n6)CC5)CC4)C3)c21 (stereo partly drawn): > 80%
C[C@@H]1CN(C[C@H]2CC[C@H](n3cc(-n4cc(-c5cnn6ccc(N7CCOCC7)nc56)nn4)c(C(F)F)n3)CC2)CCN1c1cccc2c1n(C)c(=O)n2C1CCC(=O)NC1=O (stereo partly drawn): 70 to 80%

Input: Kindly state the measured Dmax obtained for NC(=O)c1cnn2c(-c3cn(-c4cn([C@H]5CC[C@H](CN6CCN(c7ccc(C(=O)NC8CCC(=O)NC8=O)c(F)c7)CC6)CC5)nc4C(F)F)nn3)ccc2c1 (stereo partly drawn) with IRAK4 (Homo sapiens).
Output: 70 to 80%

Input: So what Dmax did Cn1c(=O)n(C2CCC(=O)NC2=O)c2cccc(N3CC4CN(C[C@H]5CC[C@H](n6cc(-n7cc(-c8cnn9ccc(N%10CCOCC%10)nc89)nn7)c(C(F)F)n6)CC5)CC4C3)c21 (stereo partly drawn) get with IRAK4 (Homo sapiens)?
Output: 60 to 70%
